The values you see were collected from ChEMBL document CHEMBL2429797.

- Tested on: Rattus norvegicus
- protocol_notes: Hepatotoxicity in Triton-X-100-induced hyperlipidemia Wistar albino rat model assessed as alkaline phosphatase level in serum at 250 mg/kg, po qd for 7 days
- Format: toxicity, organism-based
- Parameters: dose 250 mg/kg, route oral
- measurement_parameters: in vivo, 168 h
Below: a set of entries, each annotated with reported Activity.
Write down the numeric answer in KA and omit the unit.

Lab note: measured Activity of Clc1ccc(-c2nc3sc(-c4ccc5c(c4)OCO5)nn3c2/C=N/c2ccc(Br)cc2)cc1 was 26.6

The compound listed as O=C(O)c1ccc(/N=C/c2c(-c3ccc(Cl)cc3)nc3sc(-c4ccc5c(c4)OCO5)nn23)cc1 has a reported Activity of 29.5

The recorded Activity for entry CC(C)OC(=O)C(C)(C)Oc1ccc(C(=O)c2ccc(Cl)cc2)cc1 [FENOFIBRATE] equals 28.33

Activity in this record for O=[N+]([O-])c1ccc(/N=C/c2c(-c3ccc(Cl)cc3)nc3sc(-c4ccc5c(c4)OCO5)nn23)cc1 : 28.8

Entry under test: Fc1ccc(/N=C/c2c(-c3ccc(Cl)cc3)nc3sc(-c4ccc5c(c4)OCO5)nn23)cc1Cl . Its Activity was 27.3

***
Lab book: Activity of NS(=O)(=O)c1ccc(/N=C/c2c(-c3ccc(Cl)cc3)nc3sc(-c4ccc5c(c4)OCO5)nn23)cc1 noted as 29.3
